Tested on: human tumor H5340 **
Test: Human Tumor Stem Cell Assay, colony growth after one hour exposure
Format: cell-based
Settings: HI: furandione 1.0 mcg/ml; standard drugs 50% of peak plasma concentration; 1 h
Experimental: The in vitro Human Tumor Stem Cell Assay procedure described as follows has several advantages for testing the effectiveness of chemotherapy drugs such as the 3-(heteroarylalkylene)-2,4(3H,5H)-furandiones. […] One of the 3-(heteroarylalkylene)-2,4(3H,5H)-furandione compounds, 3-[(5-methyl-2-thienyl) methylene]-2,4(3H,5H)-furandione was evaluated against a series of 10 human tumors in the in vitro Human Tumor Cell Assay, along with conventional and standard chemotherapy agents. […]
MEASUREMENT KIND: percentage of growth (colonies vs control) (%)

# COMPOUND, UNIT ABBREV, EXPERIMENTAL VALUE
data = [
    ("Nc1nc(=S)c2[nH]cnc2[nH]1 [Compound 6TG, 6THOQUANINE]", "%", 50),
    ("CC[C@]1(O)C[C@H]2CN(CCc3c([nH]c4ccccc34)[C@@](C(=O)OC)(c3cc4c(cc3OC)N(C=O)[C@H]3[C@@](O)(C(=O)OC)[C@H](OC(C)=O)[C@]5(CC)C=CCN6CC[C@]43[C@@H]65)C2)C1 [VCR, VINCRISTINE]", "%", 113),
    ("Cc1ccc(C=C2C(=O)COC2=O)s1 [Compound 4]", "%", 50),
    ("CC[C@]1(O)C[C@@H]2CN(CCc3c([nH]c4ccccc34)[C@@](C(=O)OC)(c3cc4c(cc3OC)N(C)[C@H]3[C@@](O)(C(=O)OC)[C@H](OC(C)=O)[C@]5(CC)C=CCN6CC[C@]43[C@@H]65)C2)C1 [VBL, VINBLASTINE]", "%", 44),
    ("N.N.[Cl][Pt][Cl] [CPDD, CISPLATIN]", "%", 125),
    ("CCOC(=O)NC1=C(N2CC2)C(=O)C(NC(=O)OCC)=C(N2CC2)C1=O [AZO, AZIRIDIMYLBENYOQUINONE]", "%", 107),
]
